experimental_protocol: Tested for inhibitory activity against thromboxane B2 (TXB2) in human platelets
We begin with a simple list: items and their reported pIC50.
For clarity, pIC50 is expressed as the negative log10 of concentration in mol/L.

Example cases with answers are listed next.
{"columns": ["item_smiles", "attribute_measured", "quantitative_result"],
 "data": [
  ["CCNc1nc2c(Cc3cccnc3)c(C)c(O)c(C)c2s1", "pIC50", 7.22],
  ["CCNc1nc2c(C)c(C)c(O)c(Cc3cccnc3)c2s1", "pIC50", 5.37],
  ["CCNc1nc2c(C)c(Cc3cccnc3)c(O)c(C)c2s1", "pIC50", 5.64]
]}

Please turn your attention to the following entry.
Sample CNc1nc2c(Cc3cccnc3)c(C)c(O)c(C)c2s1 ; pIC50 observed: 7.10

====

assayed_system: Cyclooxygenase (Rattus norvegicus)
experimental_protocol: Inhibitory activity against the production of prostaglandin E2 (PGE2) in glycogen-induced peritoneal cells of rat
attribute_measured: IC50

Worked set:
{"columns": ["item_smiles", "IC50"],
 "data": [
  ["CCCNc1nc2c(Cc3cccnc3)c(C)c(O)c(C)c2s1.Cl.Cl", "> 100 µM"],
  ["Cc1c(O)c2ccccc2c2nc(NCc3cccnc3)sc12", "5.5 µM"],
  ["Cc1c(O)c(Cc2cccnc2)c2sc(N)nc2c1C.Cl.Cl", "> 100 µM"],
  ["COc1c(O)c(C)c2sc(N)nc2c1Cc1cccnc1.Cl.Cl", "> 100 µM"],
  ["CCNc1nc2c(C)c(Cc3cccnc3)c(O)c(C)c2s1", "> 100 µM"]
]}

Considering CNc1nc2c(C)c(Cc3cccnc3)c(O)c(C)c2s1.Cl.Cl , its IC50 with Cyclooxygenase (Rattus norvegicus) was recorded as > 100 µM

For the compound CCc1c(O)c(OC)c(Cc2cccnc2)c2nc(NC)sc12 , the measured IC50 on Cyclooxygenase (Rattus norvegicus) was > 100 µM

Recorded IC50 for CCNc1nc2c(C)c(C)c(O)c(Cc3cccnc3)c2s1 on Cyclooxygenase (Rattus norvegicus) was > 100 µM

Response field IC50 (Cyclooxygenase (Rattus norvegicus)) for item Oc1cc(-c2ccccc2)c2nc(NCc3cccnc3)sc2c1 : 9.6 µM

====

assayed_system: Polyunsaturated fatty acid 5-lipoxygenase (Rattus norvegicus, UniProt P12527)
Sequence (P12527 whole entry): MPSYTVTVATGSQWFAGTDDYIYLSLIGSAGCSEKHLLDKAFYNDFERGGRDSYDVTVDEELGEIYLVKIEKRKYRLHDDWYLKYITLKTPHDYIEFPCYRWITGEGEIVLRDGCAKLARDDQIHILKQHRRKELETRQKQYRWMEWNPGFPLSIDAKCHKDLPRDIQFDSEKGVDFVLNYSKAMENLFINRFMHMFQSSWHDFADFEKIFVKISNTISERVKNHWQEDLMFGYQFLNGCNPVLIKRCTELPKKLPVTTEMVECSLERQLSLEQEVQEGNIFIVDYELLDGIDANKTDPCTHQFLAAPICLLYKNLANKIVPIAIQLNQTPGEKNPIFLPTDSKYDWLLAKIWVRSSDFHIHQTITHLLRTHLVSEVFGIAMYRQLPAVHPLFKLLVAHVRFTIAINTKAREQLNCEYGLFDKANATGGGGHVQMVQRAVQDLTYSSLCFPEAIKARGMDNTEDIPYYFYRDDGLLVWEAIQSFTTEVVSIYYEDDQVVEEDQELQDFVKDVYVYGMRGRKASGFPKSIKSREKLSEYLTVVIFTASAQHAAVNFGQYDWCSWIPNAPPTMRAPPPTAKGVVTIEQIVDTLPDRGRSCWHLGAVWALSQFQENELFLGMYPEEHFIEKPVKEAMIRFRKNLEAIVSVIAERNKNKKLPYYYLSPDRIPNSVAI
experimental_protocol: Inhibitory activity against the production of leukotriene B4 (LTB4) in glycogen-induced peritoneal cells of rat
Format: functional
attribute_measured: IC50 (nM)
The reply should be a number in nM, with the unit left off.

Examples with their reported IC50 follow.
{"columns": ["item_smiles", "IC50 / nM"],
 "data": [
  ["CNc1nc2c(Cc3cccnc3)c(OC)c(O)c(C)c2s1", 170],
  ["CCc1c(O)c(OC)c(Cc2cccnc2)c2nc(N)sc12", 150],
  ["Cc1c(O)c2ccccc2c2nc(NCc3cccnc3)sc12", 1600],
  ["Oc1cc(-c2ccccc2)c2nc(NCc3cccnc3)sc2c1", 7000],
  ["CNc1nc2c(C)c(Cc3cccnc3)c(O)c(C)c2s1.Cl.Cl", 300]
]}

// COc1cc2nc(NCc3cccnc3)sc2c(OC)c1O : IC50 value = 90

Sure, the documented IC50 for COc1c(O)c(C)c2sc(N)nc2c1Cc1cccnc1.Cl.Cl is 170

====

List of pIC50 values.
assayed_system: UniProt:P24557
Sequence (P24557 whole entry): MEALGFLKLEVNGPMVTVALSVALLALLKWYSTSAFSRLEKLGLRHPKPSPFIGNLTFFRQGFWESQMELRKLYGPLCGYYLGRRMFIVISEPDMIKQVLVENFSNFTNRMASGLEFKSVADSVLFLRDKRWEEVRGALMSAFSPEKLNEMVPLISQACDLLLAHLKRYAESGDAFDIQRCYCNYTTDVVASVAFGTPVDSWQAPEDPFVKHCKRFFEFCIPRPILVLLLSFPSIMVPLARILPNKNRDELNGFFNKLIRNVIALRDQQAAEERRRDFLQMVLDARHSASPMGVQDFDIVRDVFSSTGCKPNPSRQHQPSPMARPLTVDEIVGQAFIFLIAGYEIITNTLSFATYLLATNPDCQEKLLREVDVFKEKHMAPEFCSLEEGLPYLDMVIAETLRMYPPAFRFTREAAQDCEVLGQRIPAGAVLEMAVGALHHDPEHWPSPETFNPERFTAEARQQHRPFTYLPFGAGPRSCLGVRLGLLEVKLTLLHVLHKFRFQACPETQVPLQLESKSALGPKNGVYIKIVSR
experimental_protocol: Tested for inhibitory activity against thromboxane A2 (TXA2) synthetase in microsome of human platelets
The quantity pIC50 is defined as the negative base-10 logarithm of the molar concentration.

{"columns": ["item_smiles", "assayed_system", "quantitative_result"],
 "data": [
  ["CNc1nc2c(Cc3cccnc3)c(C)c(O)c(C)c2s1", "UniProt:P24557", 8.05],
  ["CCNc1nc2c(Cc3cccnc3)c(C)c(O)c(C)c2s1", "UniProt:P24557", 8.00],
  ["CCNc1nc2c(C)c(C)c(O)c(Cc3cccnc3)c2s1", "UniProt:P24557", 6.09]
]}

Then there is this molecule:
The molecule listed as CCNc1nc2c(C)c(Cc3cccnc3)c(O)c(C)c2s1 shows pIC50 equal to 6.41
